# growth inhibition annotations
assay: NCI Yeast Anticancer Drug Screen. Data for the bub3 strain (AID 167); conditions: S. cerevisiae bub3 mutant strain, at 50.0 µM, stronger effect = higher value
About 79,000 compounds went through this panel and 15% of them were active in at least one assay; those are over-represented in the sample as a whole.
Use % as the unit, but write only the number.

Previously resolved entries follow.
- compound: "CC(CN(C)C)C(/C=C/c1ccc(Cl)c(Cl)c1)=N\\Nc1ccccc1 (stereo not given)"
  growth inhibition, %: 88.4
- compound: "CC(=O)N1C/C(=C\\c2ccccc2)C(=O)/C(=C/c2ccccc2)C1"
  growth inhibition, %: 87.8
- compound: "CCCCCN(CCCCC)C(=S)Nc1ccccc1"
  growth inhibition, %: 87.8
- compound: "CN(C)C(=O)c1ccccc1SC(=S)NCc1ccccc1"
  growth inhibition, %: 88.2
- compound: "COc1ccc(N=NC(C(=O)c2ccccc2)C(=O)c2ccccc2)cc1"
  growth inhibition, %: 91.2
- compound: "COc1cc(O)c2c(c1)C(=O)c1cc3c(c(O)c1C2=O)C(OC1OC(C)C(O)C(O)C1OC)C(OC)C(C)(O)C3=O (stereo not given)"
  growth inhibition, %: 93.3
- compound: "O=c1ccc2c(COc3ccc(Cl)cc3Cl)c3ccc(O)cc3oc-2c1"
  growth inhibition, %: 25.1
- compound: "CCN(CC)CCOC(=O)C1CCCCC1C(=O)C1CCCCC1 (stereo not given)"
  growth inhibition, %: 0.85

# input So what does the record say about growth inhibition for Nc1ccccc1Sc1ccccc1 ?
# output 64.5

# input So what does the record say about growth inhibition for O=C1/C(=C/c2ccc([N+](=O)[O-])cc2)CNC/C1=C\c1ccc([N+](=O)[O-])cc1 ?
# output 83.8
